The entries below pair molecules with IC50 values for Vascular endothelial growth factor receptor 2 (Homo sapiens, UniProt P35968), as found in several publications.

Lab entry: Vascular endothelial growth factor receptor 2 (Homo sapiens, UniProt P35968) assay, molecule "COc1cc(OC)cc(N(CCNC(C)C)c2ccc3ncc(C(=O)NCCN4CCOCC4)nc3c2)c1" , IC50 = > 1000 nM

Lab entry: Vascular endothelial growth factor receptor 2 (Homo sapiens, UniProt P35968) assay, molecule "Cn1cccc1C(=O)c1c[nH]c2ncccc12" , IC50 = ≤ 10000 nM

Lab entry: Vascular endothelial growth factor receptor 2 (Homo sapiens, UniProt P35968) assay, molecule "Cc1cc(Oc2cc(NC(=O)C3CC3)ncn2)ccc1NC(=O)Nc1cc(NC(C)C)cc(C(F)(F)F)c1" , IC50 = 26 nM

Lab entry: Vascular endothelial growth factor receptor 2 (Homo sapiens, UniProt P35968) assay, molecule "Fc1cccc(COc2ccc(Nc3ncnc4ccc(-c5ccc(CNCC6CCCCC6)o5)cc34)cc2Cl)c1" , IC50 = < 10000 nM

Lab entry: Vascular endothelial growth factor receptor 2 (Homo sapiens, UniProt P35968) assay, molecule "CCCS(=O)(=O)Nc1ccc(F)c(Nc2ncnc3ccc(-c4ccc(=O)[nH]c4)cc23)c1F" , IC50 = > 3000 nM

Lab entry: Vascular endothelial growth factor receptor 2 (Homo sapiens, UniProt P35968) assay, molecule "CC(C)(O)COc1cc(-c2ccc(N3C4CC5CC3CC(C(=O)Nc3ncccc3Cl)(C5)C4)nc2)c2c(C#N)cnn2c1" , IC50 = 10 to 50 nM

Lab entry: Vascular endothelial growth factor receptor 2 (Homo sapiens, UniProt P35968) assay, molecule "O=C(Nc1cc(C2CCN(C3CC3)CC2)cc(C(F)(F)F)c1)Nc1ccc(Oc2ccnc(NC(=O)C3CC3)c2)c(F)c1" , IC50 = 34.3 nM

Lab entry: Vascular endothelial growth factor receptor 2 (Homo sapiens, UniProt P35968) assay, molecule "Brc1ccnc2[nH]ccc12" , IC50 = ≤ 10000 nM

* * *

pIC50: −log10 of the molar value.
The entries below pair compounds with pIC50 values for UniProtKB P35968, as found in several publications.

Lab entry: UniProtKB P35968 assay, compound "Cn1cc(-c2nccc(Oc3cccc(NC(=O)Nc4cccc(C(F)(F)F)c4)c3)n2)cn1" , pIC50 = ≥ 5.00

Lab entry: UniProtKB P35968 assay, compound "CC(F)(F)c1ccc(F)c(NC(=O)Nc2ccc(Oc3ccnc(NC(=O)C4CC4)c3)cc2)c1" , pIC50 = 8.21

Lab entry: UniProtKB P35968 assay, compound "CCN(CC)CCNC(=O)c1c(C)[nH]c2c1CCC/C2=C1/C(=O)Nc2cc(Cl)ccc21" , pIC50 = 7.96

Lab entry: UniProtKB P35968 assay, compound "O=C(c1cccc(O)c1)c1c[nH]c2nccc(Cl)c12" , pIC50 = ≥ 5.00

Lab entry: UniProtKB P35968 assay, compound "COc1cc(OC)cc(N(CCN2CCOCC2)c2ccc3ncc(-c4ccc(N)nc4)nc3c2)c1" , pIC50 = 6.90

Lab entry: UniProtKB P35968 assay, compound "COc1cc2nccc(Oc3ccc(NC(=S)NCCN(C)C)c(Cl)c3)c2cc1C(N)=O" , pIC50 = 6.00 to 6.70

Lab entry: UniProtKB P35968 assay, compound "CO/N=C(\C)c1cnc2ccc(N(CCO)c3cc(OC)cc(OC)c3)cc2n1" , pIC50 = < 6.00

Lab entry: UniProtKB P35968 assay, compound "Cn1cc(-c2cnc3[nH]cc(C(=O)c4cccc(NS(=O)(=O)c5cccc(C(F)(F)F)c5)c4)c3c2)cn1" , pIC50 = ≥ 5.00
